- Tested on: SK-N-MM (SKNMM-MYCN, doxycycline-inducible MYCN)
- testSummary: area under dose-response curve (CellTiter-Glo viability normalised to plate controls) (AUC (arbitrary units)); higher = more loss of viability; extreme values may be limits of the assay
- assayConditions: MYCN induction (doxycycline): +doxycycline (MYCN induced); time after drugging: 3 days

{"columns": ["compound", "targetUnderTest", "area under dose-response curve"],
 "data": [
  ["CC12CC3CC(C)(C1)CC(N)(C3)C2 [MEMANTINE]", "SK-N-MM (SKNMM-MYCN, doxycycline-inducible MYCN)", 0],
  ["CCN(CCO)CCCC(C)Nc1ccnc2cc(Cl)ccc12 (centres undefined) [HYDROXYCHLOROQUINE]", "SK-N-MM (SKNMM-MYCN, doxycycline-inducible MYCN)", 0],
  ["CC[C@]1(O)C[C@H]2CN(CCc3c([nH]c4ccccc34)[C@@](C(=O)OC)(c3cc4c(cc3OC)N(C=O)[C@H]3[C@@](O)(C(=O)OC)[C@H](OC(C)=O)[C@]5(CC)C=CCN6CC[C@]43[C@@H]65)C2)C1 [VINCRISTINE]", "SK-N-MM (SKNMM-MYCN, doxycycline-inducible MYCN)", 185],
  ["O=C(CCCCCCNC(=O)c1cnc(N(c2ccccc2)c2ccccc2)nc1)NO [ROCILINOSTAT]", "SK-N-MM (SKNMM-MYCN, doxycycline-inducible MYCN)", 43.9],
  ["COc1cc2nccc(Oc3ccc(NC(=O)C4(C(=O)Nc5ccc(F)cc5)CC4)cc3)c2cc1OC [CABOZANTINIB]", "SK-N-MM (SKNMM-MYCN, doxycycline-inducible MYCN)", 0],
  ["N#CCNC(=O)c1ccc(-c2ccnc(Nc3ccc(N4CCOCC4)cc3)n2)cc1", "SK-N-MM (SKNMM-MYCN, doxycycline-inducible MYCN)", 40.7],
  ["Cn1ncnc1[C@H]1c2n[nH]c(=O)c3cc(F)cc(c23)N[C@@H]1c1ccc(F)cc1 [TALAZOPARIB]", "SK-N-MM (SKNMM-MYCN, doxycycline-inducible MYCN)", 48.2],
  ["CO[C@H]1C[C@@H]2CC[C@@H](C)[C@@](O)(O2)C(=O)C(=O)N2CCCC[C@H]2C(=O)O[C@H]([C@H](C)C[C@@H]2CC[C@@H](OC(=O)C(C)(CO)CO)[C@H](OC)C2)CC(=O)[C@H](C)/C=C(\\C)[C@@H](O)[C@@H](OC)C(=O)[C@H](C)C[C@H](C)/C=C/C=C/C=C/1C [TEMSIROLIMUS]", "SK-N-MM (SKNMM-MYCN, doxycycline-inducible MYCN)", 8.87],
  ["COc1ccc2c(c1OC)C(=O)O[C@@H]2[C@H]1c2c(cc3c(c2OC)OCO3)CCN1C [NOSCAPINE]", "SK-N-MM (SKNMM-MYCN, doxycycline-inducible MYCN)", 0.556],
  ["CCOc1cc(C(C)(C)C)ccc1C1=N[C@@](C)(c2ccc(Cl)cc2)[C@@](C)(c2ccc(Cl)cc2)N1C(=O)N1CCN(CCCS(C)(=O)=O)CC1 [RG7112]", "SK-N-MM (SKNMM-MYCN, doxycycline-inducible MYCN)", 0],
  ["O=P1(N(CCCl)CCCl)NCCCO1 (centres undefined) [CYCLOPHOSPHAMIDE]", "SK-N-MM (SKNMM-MYCN, doxycycline-inducible MYCN)", 0],
  ["O=P1(NCCCl)OCCCN1CCCl (centres undefined) [IFOSFAMIDE]", "SK-N-MM (SKNMM-MYCN, doxycycline-inducible MYCN)", 0],
  ["Nc1nc(F)nc2c1ncn2[C@@H]1O[C@H](COP(=O)(O)O)[C@@H](O)[C@@H]1O [FLUDARABINE PHOSPHATE]", "SK-N-MM (SKNMM-MYCN, doxycycline-inducible MYCN)", 0],
  ["Nc1nc2[nH]cc(CCc3ccc(C(=O)N[C@@H](CCC(=O)O)C(=O)O)cc3)c2c(=O)[nH]1 [PEMETREXED]", "SK-N-MM (SKNMM-MYCN, doxycycline-inducible MYCN)", 6.04]
]}

----------
- Test system: SK-N-MM (SKNMM-MYCN, doxycycline-inducible MYCN)
- testSummary: area under dose-response curve (CellTiter-Glo viability normalised to plate controls) (AUC (arbitrary units)); higher = more loss of viability; extreme values may be limits of the assay
- assayConditions: MYCN induction (doxycycline): +doxycycline (MYCN induced); time after drugging: 3 days
# area under dose-response curve listing for each entry below
quantityName: area under dose-response curve

{"columns": ["compound", "recordedValue"],
 "data": [
  ["CC(C)n1nc(-c2ccc3oc(N)nc3c2)c2c(N)ncnc21", 36.2],
  ["Cc1cnc(NC(=O)Nc2cc(Br)c(C)cc2OC[C@@H]2CNCCO2)cn1", 89.5],
  ["CCc1ccc(CCOc2ccc(CC3SC(=O)NC3=O)cc2)nc1 (stereo not drawn)", 0],
  ["Nc1nc(Cl)nc2c1ncn2[C@H]1C[C@H](O)[C@@H](CO)O1", 51.7],
  ["O=c1[nH]c(=O)n([C@H]2C[C@H](O)[C@@H](CO)O2)cc1/C=C/Br", 0.716],
  ["C=CCn1c(=O)c2cnc(Nc3ccc(N4CCN(C)CC4)cc3)nc2n1-c1cccc(C(C)(C)O)n1", 105],
  ["C1=N/C2=N/c3ccc(OCCN4CCCC4)c(c3)COC/C=C/COCc3cccc(c3)C(=C1)N2", 170],
  ["CCc1c2c(nc3ccc(O)cc13)-c1cc3c(c(=O)n1C2)COC(=O)[C@]3(O)CC", 152],
  ["CC1(C)CCC(C)(C)c2cc(NC(=O)c3ccc(C(=O)O)cc3)ccc21", 1.1],
  ["Cc1c2oc3c(C)ccc(C(=O)N[C@@H]4C(=O)N[C@H](C(C)C)C(=O)N5CCC[C@H]5C(=O)N(C)CC(=O)N(C)[C@@H](C(C)C)C(=O)O[C@@H]4C)c3nc-2c(C(=O)N[C@@H]2C(=O)N[C@H](C(C)C)C(=O)N3CCC[C@H]3C(=O)N(C)CC(=O)N(C)[C@@H](C(C)C)C(=O)O[C@@H]2C)c(N)c1=O", 140],
  ["CN(N=O)C(=O)N[C@H]1C(O)O[C@H](CO)[C@@H](O)[C@@H]1O (mixture of isomers)", 0],
  ["Nc1nc(Cl)nc2c1ncn2[C@@H]1O[C@H](CO)[C@@H](O)[C@@H]1F", 67.5],
  ["Nc1nc(=O)n([C@H]2C[C@H](O)[C@@H](CO)O2)cc1F", 23.7],
  ["CN(C)C/C=C/C(=O)Nc1cc2c(Nc3ccc(F)c(Cl)c3)ncnc2cc1O[C@H]1CCOC1", 137],
  ["CON(C)C(=O)N1N=C(c2cc(F)ccc2F)S[C@@]1(CCCN)c1ccccc1", 218],
  ["Cc1c(N)nc([C@H](CC(N)=O)NC[C@H](N)C(N)=O)nc1C(=O)N[C@H](C(=O)N[C@H](C)[C@@H](O)[C@H](C)C(=O)N[C@H](C(=O)NCCc1nc(-c2nc(C(=O)NCCC[S+](C)C)cs2)cs1)[C@@H](C)O)[C@@H](OC1OC(CO)C(O)C(O)C1OC1OC(CO)C(O)C(OC(N)=O)C1O)c1cnc[nH]1 (stereo partly drawn)", 0],
  ["CCOc1ccn(-c2ccc(F)cc2)c(=O)c1C(=O)Nc1ccc(Oc2ccnc(N)c2Cl)c(F)c1", 0],
  ["C[C@H]1C[C@H]2[C@@H]3CCC4=CC(=O)C=C[C@]4(C)[C@@]3(F)[C@@H](O)C[C@]2(C)[C@@]1(O)C(=O)CO", 0],
  ["CN(C)CCCNc1c2ccccc2nc2c1[nH]c1ccccc12", 219],
  ["O=C1c2c(O)ccc(O)c2C(=O)c2c(NCCNCCO)ccc(NCCNCCO)c21", 166],
  ["CC(=O)OC[C@H]1O[C@@H]([S-])[C@H](OC(C)=O)[C@@H](OC(C)=O)[C@@H]1OC(C)=O.CCP(CC)CC.[Au+]", 199],
  ["CC[C@@H]1C(=O)N(C)c2cnc(Nc3ccc(C(=O)N[C@H]4CC[C@H](N5CCN(CC6CC6)CC5)CC4)cc3OC)nc2N1C(C)C", 87.9],
  ["CO[C@@H]1[C@H](N(C)C(=O)c2ccccc2)C[C@H]2O[C@]1(C)n1c3ccccc3c3c4c(c5c6ccccc6n2c5c31)C(=O)NC4", 59.7],
  ["Cc1ccc(NC(=O)c2ccc(CN3CCN(C)CC3)cc2)cc1Nc1nc(-c2cccnc2)cs1", 0],
  ["CCC(C)n1ncn(-c2ccc(N3CCN(c4ccc(OCC5COC(Cn6cncn6)(c6ccc(Cl)cc6Cl)O5)cc4)CC3)cc2)c1=O (stereo not drawn)", 13.1],
  ["Cc1cc(Nc2cc(N3CCN(C)CC3)nc(/C=C/c3ccccc3)n2)n[nH]1", 86],
  ["CCOC(=O)CCNc1cc(N2CCc3ccccc3CC2)nc(-c2ccccn2)n1", 0.00103],
  ["Cc1nc(-c2cn3c(n2)-c2ccc(-c4cnn(C(C)(C)C(N)=O)c4)cc2OCC3)n(C(C)C)n1", 23.1]
]}
